Source of measurements: patent US20070004634A1

test_target: IGF-1R on cells (MCF-7, MiaPaCa, FDC-P2 cells expressing human IGF-1R) (human, UniProt P08069 31-1367)
test_method_notes: cell-based or functional assay
Measured Cellular EC50 (M), MCF-7 cell proliferation, listed per entry for reference.
Express the result in M but write the number alone.

binder="D112-12-D112 (peptide) ADYKDCWARPCGDAANFYDWFVQQASKKGGSGGSGGSGGSCWARPCGDAANFYDWFVQQASKKAAAGAPVPYPDPLEPRPG" quantity_unit=M assay_result=3.5e-07
binder="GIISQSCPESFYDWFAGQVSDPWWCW [G33]" quantity_unit=M assay_result=3e-07

Param item = RP30-IGF-12-D112 (peptide) ADYKDSFYSCLESLVNGGAERSDGQWEGCRGGSGGSGGSGGSCWARPCGDAANFYDWFVQQASKKAAAGAPVPYPDPLEPRPG ; retrieve measured Cellular EC50 (M), MCF-7 cell proliferation. 4.1e-07

What Cellular EC50 (M), MCF-7 cell proliferation value was documented for this binder, D112-12-RP30-IGF (peptide) ADYKDCWARPCGDAANFYDWFVQQASKKGGSGGSGGSGGSSFYSCLESLVNGGAERSDGQWEGCRAAAGAPVPYPDPLEPRPG ? 2.5e-07
